system: Escherichia coli (ATCC 8739); experiment: Agar disk diffusion, inhibition zone; format: cell-based; conditions: 100 µg/8 mm disc, triplicate, mean ± SD
endpointName: Diameter of growth inhibition zone, EC (mm)
Just the number in mm, nothing appended.

• Cc1ccc(S(=O)(=O)N2C(=O)CSC2c2cccc(O)c2)cc1 (stereo not drawn) [5l] = 17.8
• Cc1ccc(S(=O)(=O)N2C(=O)CSC2c2ccccc2F)cc1 (stereo not drawn) [5h] = 23.8
• CC1(C)S[C@@H]2[C@H](NC(=O)[C@H](N)c3ccccc3)C(=O)N2[C@H]1C(=O)O [AA, Ampicillin, reference compound] = 18
• Cc1ccc(S(=O)(=O)N2C(=O)CSC2c2cccc(Br)c2)cc1 (stereo not drawn) [5c] = 19
• Cc1ccc(S(=O)(=O)N2C(=O)CSC2c2ccc(F)cc2)cc1 (stereo not drawn) [5j] = 25.9

What the record says about Cc1ccc(S(=O)(=O)N2C(=O)CSC2c2ccccc2Br)cc1 (stereo not drawn) [5b] : Diameter of growth inhibition zone, EC is 14

---

List of MIC tested on Cryptococcus neoformans (ATCC 9011).
The reply should be a number in µg/mL, with the unit left off.

Before answering, review these 2 worked examples.
- Cc1ccc(S(=O)(=O)N2C(=O)CSC2c2cccc(F)c2)cc1 (centres unmarked) [5i]: 16
- Cc1ccc(S(=O)(=O)N2C(=O)CSC2c2ccc(O)cc2)cc1 (centres unmarked) [5m]: 64

So, Cc1ccc(S(=O)(=O)N2C(=O)CSC2c2cccc(O)c2)cc1 (centres unmarked) [5l] ? Its MIC was 128

The molecule Cc1ccc(S(=O)(=O)N2C(=O)CSC2c2cccc([N+](=O)[O-])c2)cc1 (centres unmarked) [5p] showed MIC equal to 2

Summary for this molecule, Cc1ccc(S(=O)(=O)N2C(=O)CSC2c2ccc(F)cc2)cc1 (centres unmarked) [5j] : MIC is 4

Entry Cc1ccc(S(=O)(=O)N2C(=O)CSC2c2ccccc2[N+](=O)[O-])cc1 (centres unmarked) [5o] ; MIC = 2

MIC reading for Clc1ccccc1C(c1ccccc1)(c1ccccc1)n1ccnc1 [CL, Clotrimazole, reference compound] : 2

Memo: Cc1ccc(S(=O)(=O)N2C(=O)CSC2c2cccc(C)c2)cc1 (centres unmarked) [5s] , reported MIC: 128

---

system: Escherichia coli (ATCC 8739); experiment: Agar disk diffusion, inhibition zone; type: cell-based; details: 100 µg/8 mm disc, triplicate, mean ± SD
endpointName: Diameter of growth inhibition zone, EC (mm)
All answers are understood in mm, so give the number only.

• Cc1ccc(S(=O)(=O)N2C(=O)CSC2c2ccc([N+](=O)[O-])cc2)cc1 (stereo not drawn) [5q] = 17
• Cc1ccc(S(=O)(=O)N2C(=O)CSC2c2cccc(Cl)c2)cc1 (stereo not drawn) [5f] = 18
• Cc1ccc(S(=O)(=O)N2C(=O)CSC2c2ccc(C(C)C)cc2)cc1 (stereo not drawn) [5n] = 08
• Cc1ccc(S(=O)(=O)N2C(=O)CSC2c2cccc(C)c2)cc1 (stereo not drawn) [5s] = 17
• Cc1ccc(S(=O)(=O)N2C(=O)CSC2c2ccccc2O)cc1 (stereo not drawn) [5k] = 18.8

Per the record, Cc1ccc(C2SCC(=O)N2S(=O)(=O)c2ccc(C)cc2)cc1 (stereo not drawn) [5t] has Diameter of growth inhibition zone, EC of 12

// sample Cc1ccc(S(=O)(=O)N2C(=O)CSC2c2ccc(O)cc2)cc1 (stereo not drawn) [5m] , its Diameter of growth inhibition zone, EC was 15.9

Sample Cc1ccc(S(=O)(=O)N2C(=O)CSC2c2ccc(Br)cc2)cc1 (stereo not drawn) [5d] ; Diameter of growth inhibition zone, EC observed: 20

So for Cc1ccc(S(=O)(=O)N2C(=O)CSC2c2ccccc2)cc1 (stereo not drawn) [5a] , the logged Diameter of growth inhibition zone, EC turned out to be 13.2

---

tested on: Cryptococcus neoformans (ATCC 9011)
Each entry below lists one item and its recorded MIC value.
Number in µg/mL, nothing else.

* Cc1ccc(S(=O)(=O)N2C(=O)CSC2c2ccccc2Br)cc1 (stereo not drawn) | 128
* Cc1ccc(S(=O)(=O)N2C(=O)CSC2c2ccccc2C)cc1 (stereo not drawn) | 128

Cryptococcus neoformans (ATCC 9011) data for Cc1ccc(S(=O)(=O)N2C(=O)CSC2c2ccccc2)cc1 (stereo not drawn) ; its MIC: 128

The compound Cc1ccc(S(=O)(=O)N2C(=O)CSC2c2ccccc2F)cc1 (stereo not drawn) , when measured on Cryptococcus neoformans (ATCC 9011), yielded MIC of 8

Tested on Cryptococcus neoformans (ATCC 9011): Cc1ccc(S(=O)(=O)N2C(=O)CSC2c2ccc(Cl)cc2)cc1 (stereo not drawn) . Observed MIC: 16
